All values here come from patent US20260139067A1.

- assay target: T1, recombinant human CDCP1 extracellular domain (CDCP1-ECD) (human, UniProt Q9H5V8 30-663)
- T1 construct: Expressed in HEK293 and chemically biotinylated for the phage selection; also called human CDCP1 ECD; human CDCP1-ECD
- T1 sequence (Q9H5V8 30-663): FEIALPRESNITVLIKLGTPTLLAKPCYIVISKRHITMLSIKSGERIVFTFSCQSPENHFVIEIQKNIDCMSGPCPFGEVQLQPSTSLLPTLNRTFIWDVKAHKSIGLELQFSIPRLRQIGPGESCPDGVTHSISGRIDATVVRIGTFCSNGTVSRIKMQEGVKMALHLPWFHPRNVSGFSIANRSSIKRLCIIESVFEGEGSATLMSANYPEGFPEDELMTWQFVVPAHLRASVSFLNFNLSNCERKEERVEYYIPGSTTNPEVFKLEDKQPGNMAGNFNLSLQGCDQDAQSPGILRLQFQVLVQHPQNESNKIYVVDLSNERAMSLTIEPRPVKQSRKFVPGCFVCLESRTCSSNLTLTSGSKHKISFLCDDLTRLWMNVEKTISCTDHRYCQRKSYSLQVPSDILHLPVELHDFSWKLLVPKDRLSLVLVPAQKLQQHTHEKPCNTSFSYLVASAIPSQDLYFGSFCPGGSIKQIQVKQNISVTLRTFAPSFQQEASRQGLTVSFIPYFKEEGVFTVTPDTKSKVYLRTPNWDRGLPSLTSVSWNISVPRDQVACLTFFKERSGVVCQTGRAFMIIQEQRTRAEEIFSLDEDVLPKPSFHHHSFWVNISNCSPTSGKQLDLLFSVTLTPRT
- experimental protocol: SPR (Biacore T200), antibody captured on anti-human IgG, CDCP1-ECD injected
endpoint: Kd (nM)
Numbers only here, please. The scale is nM.

Which Kd is reported for this binder? CP13E10 (antibody, human IgG1, kappa, V domains shown, Human IgG1, kappa; Heavy chain can be prepared with or without the C-terminal lysine; also called CP13E10-WT; parental CP13E10 antibody) VH: EVQLVQSGAEVKKPGASVKVSCKASGYTFTSYYMHWVRQAPGQGLEWMGIINPSGGSTSYAQKFQGRVTMTRDTSTSTVYMELSSLRSEDTAVYYCARDGVLRYFDWLLDYYYYMDVWGKGTTVTVSS VL: EIVLTQSPATLSLSPGERATLSCRASQSVGSYLAWYQQRPGQAPRLLIYDASNRATGIPARFSGSGSGTDFTLTISSLEPEDFAVYYCQQRANVFTFGQGTKVEIKR 219
